tested on: TLR2 induced IL-6 in peripheral blood mononuclear cells (PBMCs); assay: PBMC TLR2 Induced IL-6 Assay; assay type: cell-based, human; conditions: Homo sapiens, PBMC, PBMC TLR2 Induced IL-6 Assay; lipoteichoic acid stimulation, IL-6 by ELISA; read-out: Cell IC50
metric: log10 of IC50 (log10 of the value in nM)
Would you kindly interpret these values as log10 of IC50 expressed in nM?

compound="CC(C)(F)[C@H](F)CNC(=O)c1cnc(-n2cnc3cc(C#N)cnc32)cc1NC1COC1 [Example 344]" metric="log10 of IC50" assayvalue=2.16
compound="CC(C)CCNC(=O)c1cnc(-n2ncc3cc(C#N)cnc32)cc1N[C@@H](C)CO [Example 320]" metric="log10 of IC50" assayvalue=2.42
compound="CC(C)(O)[C@H](F)CNC(=O)c1cnc(-n2ccc3cc(C#N)cnc32)cc1NC1CCCOC1 (single isomer, unassigned) [Example 7]" metric="log10 of IC50" assayvalue=2.68
compound="CC(C)(O)[C@H](F)CNC(=O)c1cnc(-n2ccc3cc(C#N)cnc32)cc1NC1CC1 [Example 2]" metric="log10 of IC50" assayvalue=1.41
compound="CC(C)Nc1cc(-n2ncc3cc(C#N)cnc32)ncc1C(=O)NC1CCN(S(=O)(=O)C(C)C)CC1 [Example 272]" metric="log10 of IC50" assayvalue=2.87
compound="CC(C)(O)[C@H](F)CNC(=O)c1cnc(-n2ccc3cc(Cl)cnc32)cc1NC1CCOCC1 [Example 32]" metric="log10 of IC50" assayvalue=2.75

For every item below, please supply its log10 of IC50.
1. CC(C)(O)[C@H](F)CNC(=O)c1cnc(-n2ncc3cc(F)cnc32)cc1Nc1cnn(CC(F)F)c1 [Example 384]
2. CC(C)Nc1cc(-n2ccc3cc(C#N)cnc32)ncc1C(=O)N[C@H]1CC[C@](O)(c2ccnn2C)CC1 [Example 173]

### Response
1: 1.38; 2: 2.38

For every item below, please supply its log10 of IC50.
1. COCCn1cc(Nc2cc(-n3ncc4cc(C#N)cnc43)ncc2C(=O)NC[C@@H](F)C(C)(C)O)cn1 [Example 363]
2. CC(C)Nc1cc(-n2ncc3cc(C#N)cnc32)ncc1C(=O)NCCc1ccc(N(S(C)(=O)=O)S(C)(=O)=O)cc1 [Example 269]
3. CC(C)Nc1cc(-n2ncc3cc(C#N)c(N)nc32)ncc1C(=O)NC1CCCCC1 [Example 324]
4. CC(C)Nc1cc(-n2ncc3cc(C#N)cnc32)ncc1C(=O)NCCC1(O)CCC(F)(F)CC1 [Example 279]
5. CC(C)Nc1cc(-n2ncc3cc(C#N)cnc32)ncc1C(=O)NCCC1CC1 [Example 302]
6. CNS(=O)(=O)N1CCC(NC(=O)c2cnc(-n3ncc4cc(C#N)cnc43)cc2NC(C)C)CC1 [Example 313]
7. CC(C)(O)[C@H](F)CNC(=O)c1cnc(-n2ccc3cc(C#N)cnc32)cc1N[C@@H]1CCC[C@H]1O [Example 30]

### Response
1: 2.66; 2: 2.23; 3: 2.44; 4: 2.39; 5: 2.17; 6: 2.46; 7: 2.26
